# ASSAY: Clinical study in healthy adult subjects: pharmacokinetics
# Assay type: in vivo, human
# CONDITION_INFO: human, plasma, po, 5 mg, single oral dose 5 mg, mean (%CV), read-out: T1/2 (converted)
ENDPOINT_LABEL: half-life
Units required after the number.

// query Reported half-life for C[C@H](Nc1ncnc2[nH]cnc12)c1cc2cccc(Cl)c2c(=O)n1-c1ccccc1 : what is it?
// result 5.43 h

====

# System: B cell
# ASSAY: B cell proliferation
# Assay type: cell-based
pEC50: −log10 of the molar value.
ENDPOINT_LABEL: pEC50

// query Reported pEC50 for CC(=O)Nc1nc2ccc(-c3nn(Cc4cc5cccc(F)c5c(=O)n4C(C)C)c4ncnc(N)c34)cc2s1 : what is it?
// result > 7.00

// query Reported pEC50 for CCn1c(Cn2nc(-c3ccc4nc(NC(C)=O)sc4c3)c3c(N)ncnc32)cc2cccc(C)c2c1=O : what is it?
// result > 7.00

// query Reported pEC50 for CC(=O)Nc1nc2ccc(-c3nn(Cc4cc5cccc(C)c5c(=O)n4C4CC4)c4ncnc(N)c34)cc2s1 : what is it?
// result > 7.00

// query Reported pEC50 for CCc1ccccc1-n1c(Cn2nc(-c3cn[nH]c3)c3c(N)ncnc32)cc2cccc(C)c2c1=O : what is it?
// result > 7.00

// query Reported pEC50 for Cc1cccc2cc([C@@H](C)Nc3ncnc4[nH]cnc34)n(C3CC3)c(=O)c12 : what is it?
// result < 5.00

// query Reported pEC50 for COc1ccccc1-n1c(Cn2nc(C#C[C@@H](C)O)c3c(N)ncnc32)cc2cccc(C)c2c1=O : what is it?
// result > 6.00

// query Reported pEC50 for CC(=O)Nc1nc2ccc(-c3nn(Cc4cc5cccc(C)c5c(=O)n4-c4ccccc4C)c4ncnc(N)c34)cc2[nH]1 : what is it?
// result > 7.00

Hello, the source for this data is patent US20140120060A1, in case you need it.
